biological target: mu receptor (Rattus norvegicus); construct: The brain tissue, rat whole brain minus cerebellum for mu was homogenized; from tissue; host or cells: brain minus cerebellum of male Sprague Dawley rats, homogenate fraction; test: Naloxone [3H] opioid receptor binding assay (mu receptor); design: species or system rat (male Sprague Dawley); conditions: 20 min, pH 7.4, read-out: % displacement at 10 nM
Sequence (P33535 whole entry): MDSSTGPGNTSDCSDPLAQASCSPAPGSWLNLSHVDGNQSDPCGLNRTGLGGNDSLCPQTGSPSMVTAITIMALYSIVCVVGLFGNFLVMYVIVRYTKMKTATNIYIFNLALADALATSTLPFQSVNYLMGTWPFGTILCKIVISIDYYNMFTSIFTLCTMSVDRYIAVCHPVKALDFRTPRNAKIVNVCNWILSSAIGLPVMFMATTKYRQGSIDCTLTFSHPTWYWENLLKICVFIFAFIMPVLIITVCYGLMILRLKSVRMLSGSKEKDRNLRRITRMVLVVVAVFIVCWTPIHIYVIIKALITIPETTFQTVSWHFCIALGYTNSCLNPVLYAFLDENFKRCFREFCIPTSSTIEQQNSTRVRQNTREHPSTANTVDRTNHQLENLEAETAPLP
Structures can show the parent of a compound that is named as a salt.
# inhibition at 0.01 µM binned as LOW (below 80%), MID (80% to below 90%), HIGH (90% or more)

>  <COMPOUND>
CCOC(=O)CCCC(=O)NC(CCN1CC[C@@](C)(c2cccc(O)c2)[C@@H](C)C1)CC(C)C (single isomer, unassigned) [Example 3A, monohydrochloride]

>  <TARGET OF ASSAY>
mu receptor (Rattus norvegicus)

>  <ASSIGNED CATEGORY>
HIGH

$$$$
>  <COMPOUND>
C[C@H]1CN(CCN(CC2CCCCC2)C(=O)CCC(=O)O)CC[C@@]1(C)c1cccc(O)c1 (relative stereo) [Example 26, monohydrate]

>  <TARGET OF ASSAY>
mu receptor (Rattus norvegicus)

>  <ASSIGNED CATEGORY>
LOW

$$$$
>  <COMPOUND>
C[C@H]1CN(CC(Cc2ccccc2)NC(=O)CCCNC(=O)OC(C)(C)C)CC[C@@]1(C)c1cccc(O)c1 (stereo partly shown) [Example 18, monohydrochloride]

>  <TARGET OF ASSAY>
mu receptor (Rattus norvegicus)

>  <ASSIGNED CATEGORY>
MID

$$$$
>  <COMPOUND>
CCCOC(=O)CCCC(=O)N[C@@H](CC1CCCCC1)CN1CC[C@](C)(c2cccc(O)c2)[C@H](C)C1

>  <TARGET OF ASSAY>
mu receptor (Rattus norvegicus)

>  <ASSIGNED CATEGORY>
LOW

$$$$
>  <COMPOUND>
COC(=O)CCCC(=O)N[C@@H](CC1CCCCC1)CN1CC[C@](C)(c2cccc(O)c2)[C@H](C)C1

>  <TARGET OF ASSAY>
mu receptor (Rattus norvegicus)

>  <ASSIGNED CATEGORY>
MID

$$$$
>  <COMPOUND>
CCOC(=O)CC(=O)N[C@H](Cc1ccccc1)CN1CC[C@@](C)(c2cccc(O)c2)[C@@H](C)C1 [Example 10, hydrochloride]

>  <TARGET OF ASSAY>
mu receptor (Rattus norvegicus)

>  <ASSIGNED CATEGORY>
LOW

$$$$
>  <COMPOUND>
C[C@H]1CN(CCC(CC2CCCCC2)NC(=O)CCCC(=O)O)CC[C@@]1(C)c1cccc(O)c1 (stereo in doubt) [Example 7, monohydrochloride monohydrate]

>  <TARGET OF ASSAY>
mu receptor (Rattus norvegicus)

>  <ASSIGNED CATEGORY>
HIGH

$$$$
>  <COMPOUND>
C[C@H]1CN(CCC(CC2CCCCC2)NC(=O)CCC(=O)O)CC[C@@]1(C)c1cccc(O)c1 (stereo partly shown) [Example 1, monohydrate]

>  <TARGET OF ASSAY>
mu receptor (Rattus norvegicus)

>  <ASSIGNED CATEGORY>
LOW

$$$$
>  <COMPOUND>
CC(C)CC(=O)NCCCC(=O)N(CCN1CC[C@@](C)(c2cccc(O)c2)[C@@H](C)C1)C1CCCCC1 (relative stereo) [Example 40, hydrochloride]

>  <TARGET OF ASSAY>
mu receptor (Rattus norvegicus)

>  <ASSIGNED CATEGORY>
MID

$$$$
>  <COMPOUND>
CCOC(=O)CCC(=O)NC(CCN1CC[C@@](C)(c2cccc(O)c2)[C@@H](C)C1)CC(C)C (stereo partly shown) [Example 2B]

>  <TARGET OF ASSAY>
mu receptor (Rattus norvegicus)

>  <ASSIGNED CATEGORY>
HIGH

$$$$
